Values from patent US20210347873A1

Here the recorded mouse B lymphocyte proliferation (OD450 nm), antibody 0.0064 nM is given for each entry.
# TARGET_DESC: mouse BLyS protein (mouse, UniProt Q9WU72 69-309)
# Sequence (Q9WU72 69-309): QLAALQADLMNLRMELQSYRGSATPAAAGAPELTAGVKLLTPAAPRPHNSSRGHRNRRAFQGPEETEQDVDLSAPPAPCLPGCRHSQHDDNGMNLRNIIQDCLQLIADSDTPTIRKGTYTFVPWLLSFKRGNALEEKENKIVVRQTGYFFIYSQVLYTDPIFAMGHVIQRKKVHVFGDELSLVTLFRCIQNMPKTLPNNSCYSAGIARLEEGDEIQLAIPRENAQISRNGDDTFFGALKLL
# ASSAY_SUMMARY: cell-based or functional assay
MEASURED_METRIC: mouse B lymphocyte proliferation (OD450 nm), antibody 0.0064 nM

BINDER	REPORTED_MEASUREMENT
2-1G11 (antibody, V domains shown, From a human naive scFv phage library; also called human BLyS antibody 2-1G11) VH: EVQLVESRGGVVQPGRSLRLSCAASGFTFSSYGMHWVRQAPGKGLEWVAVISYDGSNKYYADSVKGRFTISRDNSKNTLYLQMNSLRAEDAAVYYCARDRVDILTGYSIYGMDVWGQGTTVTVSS VL: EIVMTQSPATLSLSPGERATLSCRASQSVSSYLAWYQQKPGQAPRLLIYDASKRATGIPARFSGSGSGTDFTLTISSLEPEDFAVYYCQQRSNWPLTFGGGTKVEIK	2610
97E7B3F2 (antibody, V domains shown, Mouse hybridoma monoclonal antibody purified on Protein G) VH: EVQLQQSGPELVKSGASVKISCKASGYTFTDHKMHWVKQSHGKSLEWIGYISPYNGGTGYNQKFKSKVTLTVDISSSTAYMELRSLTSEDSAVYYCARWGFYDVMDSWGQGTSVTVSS VL: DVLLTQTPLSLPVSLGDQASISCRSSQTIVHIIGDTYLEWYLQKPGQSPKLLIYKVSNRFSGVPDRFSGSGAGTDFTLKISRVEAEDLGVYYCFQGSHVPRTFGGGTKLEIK	2310
93C6F10D3 (antibody, V domains shown, Mouse hybridoma monoclonal antibody purified on Protein G) VH: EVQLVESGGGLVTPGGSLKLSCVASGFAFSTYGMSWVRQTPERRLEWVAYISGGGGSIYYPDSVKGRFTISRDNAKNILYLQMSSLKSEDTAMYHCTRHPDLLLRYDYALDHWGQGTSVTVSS VL: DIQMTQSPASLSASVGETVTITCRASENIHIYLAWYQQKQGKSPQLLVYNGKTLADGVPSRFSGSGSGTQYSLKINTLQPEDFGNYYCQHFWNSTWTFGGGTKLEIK	2510
